- Assayed system: Leukotriene B4 receptor (Homo sapiens, UniProt Q9NPC1+Q15722)
- Protocol notes: Inhibition of binding of [3H]LTB4 (1 nM) to intact human polymorphonuclear leukocytes (PMNs)
Readout kind: IC50 (µM)

[P] CCCCCCCCC(O)/C=C/[C@H]1CCC[C@@](O)(CC(=O)[O-])C1.[Na+] (stereo in doubt; 4b)
[Q] CN(C)C(=O)C[C@]1(O)CCC[C@H](/C=C/C(F)CCCCc2ccccc2)C1 (stereo in doubt; 16b)
q: Which value of IC50 is greater, the one for P or the one for Q ? Bench note: the answer is the label of the chosen record.
a: Q

###

Listed here: items and their measured IC50.
- Assayed system: Leukotriene B4 receptor (Homo sapiens, UniProt Q9NPC1+Q15722)
- Protocol notes: Inhibition of binding of [3H]LTB4 (1 nM) to intact human polymorphonuclear leukocytes (PMNs)

q: Quick one: IC50 of O=C([O-])/C=C1/CCC[C@H](/C=C/C(O)CCCCc2ccccc2)C1.[Na+] (stereo in doubt; form 1) ?
a: > 10 µM

q: Quick one: IC50 of O=C([O-])C[C@@]1(O)CCC[C@H](/C=C/C(O)CCCCc2ccccc2)C1.[Na+] (stereo in doubt; 3d) ?
a: 1.5 µM

q: Quick one: IC50 of CN(C)OC(=O)C[C@]1(O)CCC[C@H](/C=C/C(O)CCCCc2ccccc2)C1 (some centres undefined) ?
a: > 10 µM

q: Quick one: IC50 of CN(C)C(=O)C[C@]1(O)CCC[C@H](/C=C/C(C)(O)CCCCc2ccccc2)C1 (stereo in doubt; form 2) ?
a: > 10 µM
